remaining activity values, listed per item
- Test system: Aerobactin synthetase IucA (Klebsiella pneumoniae, hypervirulent)
- assay_comment: IucA enzyme inhibition, biochemical, LOPAC library, absorbance readout (AID 1346212);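 further: 100% = no compound wells and 0% = no enzyme wells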
- experimental_context: IucA enzyme assay, absorbance (OD) readout; stronger effect = lower value; concentration not given here
property_measured: remaining activity (%)

>>> df
                         structure_notation   property_measured  units_of_measure  readout_value
0                   CC(=O)NCCc1ccc(O)c(O)c1  remaining activity                 %            116
1  CO[C@H]1CC=C2CCN3CCC4=C(CC(=O)OC4)[C@]23C1  remaining activity                 %            103
2   Cn1cnc([N+](=O)[O-])c1Sc1ncnc2nc[nH]c12  remaining activity                 %            121
3  COC(=O)[C@H]1[C@H]2C[C@@H]3c4[nH]c5cc(OC)ccc5c4CCN3C[C@H]2C[C@@H](OC(=O)c2cc(OC)c(OC)c(OC)c2)[C@@H]1OC  remaining activity                 %            102
4   COc1ccc(CCn2nnnc2C2(c3ccc(C)cc3)CC2)cc1  remaining activity                 %            115

* * *

- assay_comment: sensitizers of A549 cells to miR-34 induction, primary screen, imaging, A549 dox-inducible miR-34, nuclei and caspase counts (AID 1347080)
- experimental_context: A549 miR-34 inducible, Hoechst nuclei count, 48 h; measured here: total cells without miR-34 induction
cell count values, listed per item

molecule	cell count
ClC1C(Cl)C(Cl)C(Cl)C(Cl)C1Cl (centres undefined)	11900
CN(C)c1ccc(/C=C2\CCCN=C2c2cccnc2)cc1	8480
NC1(c2ccccc2Cl)CCCCC1=O (centres undefined)	10000
CCCCC/C=C\C/C=C\C/C=C\C/C=C\CCCC(=O)N[C@H](C)COP(=O)(O)O	5460
C[C@]12CCC(O)CC1=CC[C@@H]1[C@H]2CC[C@]2(C)C(=O)CC[C@@H]12 (some centres undefined)	9530
Clc1ccc(CON=C(Cn2ccnc2)c2ccc(Cl)cc2Cl)c(Cl)c1	2560
NC(N)=Nc1ccc2[nH]c3c(c2c1)C[C@@]1(O)[C@H]2Cc4ccc(O)c5c4[C@@]1(CCN2CC1CC1)[C@H]3O5	9000
C[C@H](N)Cc1cccc(C(F)(F)F)c1	11000
COc1ccc2c(c1)C13CCCCC1C(C2)N(C)CC3 (centres undefined)	9710
CN1C[C@H](CO)C=C2c3cccc4[nH]cc(c34)C[C@H]21	10400
CCCC(=O)OCC[N+](C)(C)C	10700
CN1CC[C@@]2(C)c3cc(O)ccc3N(C)[C@H]12	9440
C[C@H](N)CN1CCc2ccc(Br)cc21	7600
Oc1ccc2c3c1O[C@H]1c4[nH]c5ccccc5c4C[C@@]4(O)C(C2)N(CC2CC2)CC[C@]314	8700
O=C1NC(=O)c2c1c1c3ccccc3[nH]c1c1[nH]c3ccccc3c21	4680
Cc1ccc2c(c1)C1(CCN(CCc3nc(-c4ccccc4)oc3C)CC1)OC(=O)N2	5610
CCCCCCC(=O)O[C@H]1CC[C@H]2[C@@H]3C[C@@H](O)C4=CC(=O)CC[C@]4(C)[C@H]3CC[C@]12C	5700
N=C(N)c1ccc(CS(=O)(=O)F)cc1	10700
CCC[C@@H]1CC2=CC(=O)CC[C@]2(C)[C@H]2CC[C@@]3(C)[C@@H](CC[C@@]3(O)CCC(=O)O)[C@H]12	7920
C[C@]12CC[C@H](O)C[C@@H]1CC[C@@H]1[C@@H]2CC[C@]2(C)C(=O)CC[C@@H]12	8440
COc1c2c(cc3c1OCO3)CCN(C)C2	11000
CCCCC/C=C\C/C=C\C/C=C\C/C=C\CCCC(=O)NCCCl	6270
COc1ccc2c(c1)[C@]13CCCCC1C(C2)N(C)CC3 (some centres undefined)	8540
C=CCN1CC[C@]23c4c5ccc(O)c4O[C@H]2/C(=N/N=C2\CC[C@@]4(O)[C@H]6Cc7ccc(O)c8c7[C@@]4(CCN6CC=C)[C@H]2O8)CC[C@@]3(O)[C@H]1C5	9820
CC[N+](CC)(CC)CC	10600
Clc1ccc(C2CC3CCC2N3)cn1 (centres undefined)	6360
C=C1[C@@H](C)[C@H]2[C@H](Cc3ccccc3)NC(=O)C23[C@H](OC(C)=O)/C=C/[C@](C)(O)C(=O)[C@@H](C)C/C=C/[C@H]3[C@@H]1O (some centres undefined)	762
CC(=O)O[C@H]1C[C@H](O[C@H]2[C@@H](O)C[C@H](O[C@H]3[C@@H](O)C[C@H](O[C@H]4CC[C@@]5(C)C(CCC6C5C[C@@H](O)[C@]5(C)[C@@H](C7=CC(=O)OC7)CC[C@]65O)C4)O[C@@H]3C)O[C@@H]2C)O[C@H](C)[C@H]1O[C@@H]1O[C@H](CO)[C@@H](O)[C@H](O)[C@H]1O (some centres undefined)	431
C=CCN1CC[C@]23c4c5ccc(O)c4O[C@H]2C(=O)CC[C@@]3(O)C1C5	8350
C[C@]12CC[C@H](O)C[C@H]1CC[C@@H]1[C@@H]2CC[C@]2(C)[C@@H](C3=CC(=O)OC3)CC[C@]12O	568
NC(CCP(=O)(O)O)C(=O)O (centres undefined)	9940
CN[C@@H]1CC2OC(C)([C@@H]1OC)n1c3ccccc3c3c4c(c5c6ccccc6n2c5c31)C(=O)NC4 (some centres undefined)	832
CC(C)NP(=O)(NC(C)C)OP(=O)(NC(C)C)NC(C)C	10200
CCN1C[C@]2(C)CC[C@H](OC)[C@@]34C1[C@]1(OCO[C@@]15C[C@H](OC)[C@H]1C[C@]3(O)[C@@H]5[C@H]1OC)[C@@H](OC(C)=O)[C@H]24	10500
CCCCC/C=C\C/C=C\C/C=C\C/C=C\CCCC(=O)NCC(O)CC(=O)O (centres undefined)	5070
NCCc1cc(O)c(O)cc1O	12600
CN(C)CCN(C)CCc1ccc(Cl)c(Cl)c1	9270
CCCN1CCO[C@@H]2c3cc(O)ccc3OC[C@@H]21	8590
CNCCc1cnc[nH]1	9770
